target: Fes (UniProt P07332); experiment: phosphorylation enrichment, bacterial display (enrichment ratio); higher = better substrate or ligand; peptides without Tyr show the background;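 also: 11-residue human phosphosite peptides and single-mutation variants displayed on the E. coli surface, counted by deep sequencing, each peptide's frequency after selection divided by its frequency in the unselected input library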;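 also: frequency after pTyr selection over input frequency; kinase dosed for 20-30% of maximal phosphorylation in three min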
Sequence (P07332 whole entry, looked up): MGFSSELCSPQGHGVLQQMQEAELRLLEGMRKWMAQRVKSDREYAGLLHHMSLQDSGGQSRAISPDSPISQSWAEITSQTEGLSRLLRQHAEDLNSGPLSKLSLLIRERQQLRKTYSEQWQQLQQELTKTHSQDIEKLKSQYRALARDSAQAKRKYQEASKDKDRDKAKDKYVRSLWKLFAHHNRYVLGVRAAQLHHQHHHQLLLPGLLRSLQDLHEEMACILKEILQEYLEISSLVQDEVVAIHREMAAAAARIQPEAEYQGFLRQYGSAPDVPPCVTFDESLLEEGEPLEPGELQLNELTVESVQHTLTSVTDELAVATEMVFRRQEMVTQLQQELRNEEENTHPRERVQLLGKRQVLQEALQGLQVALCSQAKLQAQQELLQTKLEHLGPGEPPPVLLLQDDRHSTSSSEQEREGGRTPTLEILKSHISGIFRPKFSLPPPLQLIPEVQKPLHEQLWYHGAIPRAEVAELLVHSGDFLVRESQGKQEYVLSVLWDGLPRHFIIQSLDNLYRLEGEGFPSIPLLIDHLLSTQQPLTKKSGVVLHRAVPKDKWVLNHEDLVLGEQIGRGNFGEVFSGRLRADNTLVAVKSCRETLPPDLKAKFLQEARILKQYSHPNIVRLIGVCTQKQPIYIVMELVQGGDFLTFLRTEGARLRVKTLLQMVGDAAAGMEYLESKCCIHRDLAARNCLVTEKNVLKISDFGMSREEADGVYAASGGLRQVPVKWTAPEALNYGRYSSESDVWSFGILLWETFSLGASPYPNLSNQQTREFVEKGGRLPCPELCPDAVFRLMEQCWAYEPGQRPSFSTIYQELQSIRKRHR
Quick rule: phosphorylation enrichment of at least 1 means Fulfilled, below that means Not fulfilled.

Hi, just wondering whether LGLDECLDKLK [FMNL2_Y352_Y352C] shows phosphorylation enrichment of 1 or higher.
Fulfilled

Hi, just wondering whether IQKWEYVPLGT [FAH_Y244_P249T] shows phosphorylation enrichment of 1 or higher.
Not fulfilled

Hi, just wondering whether NKFVAYIESQG [KDM4B_Y34_YF] shows phosphorylation enrichment of 1 or higher.
Fulfilled

Hi, just wondering whether YSGDCYRIQGR [DDR2_Y741_Y740C] shows phosphorylation enrichment of 1 or higher.
Not fulfilled

Hi, just wondering whether LKMLVYMDMSK [LRRC7_Y234_L235M] shows phosphorylation enrichment of 1 or higher.
Fulfilled

Hi, just wondering whether PGIRMYRVQYN [LRFN1_Y454_Q455R] shows phosphorylation enrichment of 1 or higher.
Fulfilled

Hi, just wondering whether FSTDCYRVGGH [NTRK2_Y707_Y706C_YF] shows phosphorylation enrichment of 1 or higher.
Fulfilled

Hi, just wondering whether VDTFWYKLLKR [EPM2A_Y86_F88L] shows phosphorylation enrichment of 1 or higher.
Fulfilled

Hi, just wondering whether VLVSQYEKLDA [AMZ2_Y26_N30D] shows phosphorylation enrichment of 1 or higher.
Not fulfilled

Hi, just wondering whether ARAFIYAIIPA [ACKtide_2014] shows phosphorylation enrichment of 1 or higher.
Fulfilled

Hi, just wondering whether RMDGTYACSFT [FLNB_Y704_YF] shows phosphorylation enrichment of 1 or higher.
Fulfilled

Hi, just wondering whether QSPQLYKQMCI [DARS1_Y253] shows phosphorylation enrichment of 1 or higher.
Not fulfilled

Hi, just wondering whether ALEHKYWALGQ [MAP1A_Y1555_Q1553H] shows phosphorylation enrichment of 1 or higher.
Not fulfilled

Hi, just wondering whether GITVTYTIPKK [UBA5_Y372_A371T] shows phosphorylation enrichment of 1 or higher.
Not fulfilled

Hi, just wondering whether EHIEFYELDKK [PMM2_Y145_R141H] shows phosphorylation enrichment of 1 or higher.
Fulfilled

Hi, just wondering whether ISTAGYSIPEL [EDAR_Y406] shows phosphorylation enrichment of 1 or higher.
Not fulfilled

Hi, just wondering whether LFSLGYHQSRW [GANAB_Y396] shows phosphorylation enrichment of 1 or higher.
Fulfilled

Hi, just wondering whether VNTMLYEKFTF [TEK_Y1108_T1106M_YF] shows phosphorylation enrichment of 1 or higher.
Fulfilled

Hi, just wondering whether FETVKYFNNER [ABCB7_Y345_YF] shows phosphorylation enrichment of 1 or higher.
Not fulfilled

Hi, just wondering whether SEVVPYEPPEV [TP53_Y220_V216E] shows phosphorylation enrichment of 1 or higher.
Fulfilled

Hi, just wondering whether QWQQLYDTLNA [EIF3M_Y351] shows phosphorylation enrichment of 1 or higher.
Fulfilled

Hi, just wondering whether RLRKYHLGKYL [KLB_Y906_Y906H] shows phosphorylation enrichment of 1 or higher.
Not fulfilled

Hi, just wondering whether TNFSLYLRSLE [MTM1_Y71_R69S_YF] shows phosphorylation enrichment of 1 or higher.
Fulfilled

Hi, just wondering whether MFDKEYFSVHN [MET_Y1234_YF] shows phosphorylation enrichment of 1 or higher.
Fulfilled

Hi, just wondering whether SSSNPYSTVTM [ACTN2_Y599] shows phosphorylation enrichment of 1 or higher.
Not fulfilled

Hi, just wondering whether VISNAYVDLAP [HSD17B4_Y602] shows phosphorylation enrichment of 1 or higher.
Not fulfilled

Hi, just wondering whether PESCFYKESWL [IQGAP2_Y630_L629F] shows phosphorylation enrichment of 1 or higher.
Fulfilled

Hi, just wondering whether FCRHNYGVGES [HLA-DRB1_Y112_V115G_YF] shows phosphorylation enrichment of 1 or higher.
Not fulfilled

Hi, just wondering whether HNLNYYKKTTN [FGFR3_Y648_D646N] shows phosphorylation enrichment of 1 or higher.
Not fulfilled

Where do these numbers come from? They come from the supplement of paper PMC10065799.
